Recorded values, source ChEMBL document CHEMBL2169861.

- System: Rattus norvegicus
- assay.explanation: Anti-benign prostatic hyperplasia activity in Wistar rat assessed as reduction of seminal vesicle weight gain per 100 gram of body weight at 1 mg/kg, po qd for 14 days measured on day 15
- Type: functional
Answer each item with its documented Activity.
Give bare numbers, in mg.

Some compounds with known Activity results, for comparison:
1. CN1C(=O)CC[C@H]2[C@@H]3CC=C4C=C(C(=O)O)CC[C@]4(C)[C@H]3CC[C@@]21C
126.262
2. CCN1C(=O)CC[C@H]2[C@@H]3CC=C4C=C(C(=O)O)CC[C@]4(C)[C@H]3CC[C@@]21C
151.015
3. CCOC(=O)CCN1C(=O)CC[C@H]2[C@@H]3CC=C4C=C(C(=O)O)CC[C@]4(C)[C@H]3CC[C@@]21C
136.605
4. CC(C)(C)NC(=O)[C@H]1CC[C@H]2[C@@H]3CC[C@H]4NC(=O)C=C[C@]4(C)[C@H]3CC[C@]12C [FINASTERIDE]
105.51
5. C[C@]12CC[C@H]3[C@@H](CC=C4C=C(C(=O)O)CC[C@@H]43)[C@@H]1CCC2=O
167.37

// for each compound in input: emit Activity
1. CN1C(=O)CC[C@H]2[C@@H]3CC=C4C=C(C#N)CC[C@]4(C)[C@H]3CC[C@@]21C
2. C=CCN1C(=O)CC[C@H]2[C@@H]3CC=C4C=C(C(=O)O)CC[C@]4(C)[C@H]3CC[C@@]21C
3. C[C@]12CCC(C(=O)O)=CC1=CC[C@@H]1[C@@H]2CC[C@]2(C)NC(=O)CC[C@@H]12

Result:
223.05
149.399
186.102
